Target: Human MGAT-2 (Homo sapiens (Human), UniProt Q3SYC2)
Sequence (Q3SYC2 whole entry): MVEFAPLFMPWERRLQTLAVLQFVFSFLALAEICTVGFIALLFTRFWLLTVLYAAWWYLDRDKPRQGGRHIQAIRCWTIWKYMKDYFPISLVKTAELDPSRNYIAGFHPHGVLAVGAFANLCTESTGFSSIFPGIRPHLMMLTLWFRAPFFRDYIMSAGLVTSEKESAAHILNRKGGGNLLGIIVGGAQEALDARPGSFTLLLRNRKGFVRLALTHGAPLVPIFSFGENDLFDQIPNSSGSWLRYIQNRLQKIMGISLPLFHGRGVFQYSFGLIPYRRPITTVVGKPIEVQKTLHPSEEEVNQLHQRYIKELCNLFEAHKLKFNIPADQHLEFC
Assay: MGAT LCMS Assay (human MGAT-2);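 note: diolein product quantified by LC/MS with positive APCI, expressed as peak area ratio versus an internal standard, and this ratio used to derive IC50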
Type: biochemical
Details: human MGAT-2 membranes expressed in Sf9 cells; 2-oleoylglycerol and oleoyl-Coenzyme A; read-out: h-MGAT2 IC50 (nM) LCMS Assay
assayMetric: IC50 (nM)

Solved cases (5 shown):
O=C1NC(c2ccc(OCCCC(F)(F)F)cc2)(C(F)(F)F)CC(c2ccc(OC(F)F)cc2)=C1c1nn[nH]n1 (centres unmarked) [Example 93]; 30
Cc1ccc(C2=C(C(=O)Nc3ccc(Cl)cc3)C(=O)NC(c3ccc(OCCCC(F)(F)F)cc3)(C(F)(F)F)C2)cc1 (centres unmarked); 24
CCCCCCC#Cc1ccc(C2(C(F)(F)F)CC(c3ccc(OC(F)F)cc3)=C(c3nn[nH]n3)C(=O)N2)cc1F (centres unmarked); 3
O=C1NC(c2ccc(OCCCC(F)(F)F)cc2)(C(F)(F)F)CC(c2ccc(OC(F)(F)F)cc2)=C1c1nn[nH]n1 (centres unmarked); 14
Cc1ccc(C2=C(c3nn[nH]n3)C(=O)NC(c3ccc(C#CCC4CCCCC4)cc3)(C(F)(F)F)C2)cc1 (centres unmarked); 19

(A) CCCCOc1ccc(C2(C(F)(F)F)CC(c3ccc(OC)cc3)=C(NC(=O)c3ccno3)C(=O)N2)cc1 (centres unmarked)
(B) Cc1ccc(C2=C(C(=O)Nc3ccc(F)cc3)C(=O)NC(c3ccc(Oc4ncccn4)cc3)(C(F)(F)F)C2)cc1 (centres unmarked)
(C) COc1ccc(C2=C[C@@](c3ccc(OCCCC(F)(F)F)cc3)(C(F)(F)F)NC(=O)C2(F)C#N)cc1 (stereo in doubt) [Example 15-4]
Ask | List these items ordered by IC50, big to small. Respond with the label ranking, as requested.
Reply | C, B, A
(C: 2050 nM, B: 99 nM, A: 3 nM)

---

Molecular target: UniProtKB Q3SYC2
Assay: MGAT LCMS Assay (human MGAT-2)
Assay type: biochemical
Settings: human MGAT-2 membranes expressed in Sf9 cells; 2-oleoylglycerol and oleoyl-Coenzyme A; read-out: h-MGAT2 IC50 (nM) LCMS Assay
assayMetric: IC50 (nM)

COc1cnc(NC(=O)C2=C(c3ccc(C)cc3)CC(c3ccc(OCCCCC(F)(F)F)cc3)(C(F)(F)F)NC2=O)cn1 (stereo not drawn); 10
Cc1ccc(C2=C(C(=O)Nc3ccc(OC(F)(F)F)cc3)C(=O)NC(C)(c3ccc(OCCCC(F)(F)F)cc3)C2)cc1 (stereo not drawn); 13
Cc1ccc(C2=C(NC(=O)c3oncc3C)C(=O)NC(c3ccc(OCCCC(F)(F)F)cc3)(C(F)(F)F)C2)cc1 (stereo not drawn); 84
COc1cc(C2=C(C#N)C(=O)NC(c3ccc(OCCCC(F)(F)F)cc3)(C(F)(F)F)C2)ccc1C (stereo not drawn); 96
CCNC(=O)NC1=C(c2ccc(OCC(F)F)cc2)CC(c2ccc(OCCCC(F)(F)F)cc2)(C(F)(F)F)NC1=O (stereo not drawn); 170

(1) Cc1ccc(C2=C(c3nnc(C(F)(F)F)o3)C(=O)NC(c3ccc(OCCCC(F)(F)F)cc3)(C(F)(F)F)C2)cc1 (stereo not drawn)
(2) N#CC1=C(c2ccc(Cl)c(Cl)c2)CC(c2ccc(OCCCC(F)(F)F)cc2)(C(F)(F)F)NC1=O (stereo not drawn)
Ask | Returns the identifier with the smallest measured IC50 among 1 and 2 . I would appreciate it if you answered with the label of your choice.
Reply | 1
(1: 138 nM, 2: 733 nM)
